# experimental-system: T1, Lrp6E3E4 domain (Homo sapiens, UniProt O75581)
# T1 sequence (O75581 631-1244 limits assumed): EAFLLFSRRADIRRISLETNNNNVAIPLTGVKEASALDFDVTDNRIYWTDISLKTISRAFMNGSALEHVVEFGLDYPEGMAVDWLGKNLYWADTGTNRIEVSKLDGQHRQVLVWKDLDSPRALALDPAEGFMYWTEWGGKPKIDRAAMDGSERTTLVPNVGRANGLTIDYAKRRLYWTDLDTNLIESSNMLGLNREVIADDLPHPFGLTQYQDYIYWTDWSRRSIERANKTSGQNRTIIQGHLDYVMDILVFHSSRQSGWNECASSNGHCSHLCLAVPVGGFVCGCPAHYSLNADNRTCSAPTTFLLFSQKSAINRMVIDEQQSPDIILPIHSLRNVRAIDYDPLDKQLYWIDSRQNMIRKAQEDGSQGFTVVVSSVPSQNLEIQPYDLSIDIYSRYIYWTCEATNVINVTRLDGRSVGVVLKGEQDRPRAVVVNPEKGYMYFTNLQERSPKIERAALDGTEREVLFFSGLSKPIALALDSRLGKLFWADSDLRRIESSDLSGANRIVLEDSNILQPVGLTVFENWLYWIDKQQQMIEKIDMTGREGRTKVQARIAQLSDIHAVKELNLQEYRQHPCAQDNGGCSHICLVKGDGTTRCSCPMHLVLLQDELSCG
# protocol-details: Bio-layer interferometry (Octet) binding kinetics of VHH26 constructs
# measurement-setup: SEC fraction C3/G3 (parental D3); 1:1 binding model
readout: kon
// keep it numeric: no unit symbol after the value

For the molecule VHH26-H3: humanized variant of LRP6 binding VHH26, SEQ ID NO: 21 (protein, VHH26_H3) VHH: EVQLVESGGGLVQPGGSLRLSCAGSGRIFAIYDIAWYRQAPGKGREWVAMIRPVVTEIDYADSVKGRFTISRDNSKNTVYLQMNSLRAEDTAVYYCNAKRPWGSRDEYWGQGTTVTVSS , what kon is on record?
1.84E+04

Same thing, different molecule: VHH26 (parental): parental camelid LRP6 binding VHH, SEQ ID NO: 25 (protein, VHH26 (parental)) VHH: DVQLVESGGGLVQAGGSLRLACAGSGRIFAIYDIAWYRHPPGNQRELVAMIRPVVTEIDYADSVKGRFTISRNNAMKTVYLQMNNLKPEDTAVYYCNAKRPWGSRDEYWGQGTQVTVSS
1.05E+06
